Data credit: ChEMBL document CHEMBL4715702

Assay: Prodrug release in human HT-29 cells assessed as increase in NO level by measuring nitrite release at 5 uM incubated for 24 hrs by spectrophotometric analysis
Format: ADME, cell-based
Settings: ht-29, 24 h
MEASUREMENT TYPE: Drug metabolism

Task: Hello, please tell me recorded Drug metabolism for this one: COc1cccc2c1C(=O)c1c(O)c3c(c(O)c1C2=O)C[C@@](O)(C(=O)COC(=O)C(C)(C)CO[N+](=O)[O-])C[C@@H]3O[C@H]1C[C@H](N)[C@H](O)[C@H](C)O1.Cl
Result: Metabolite_Detected

Task: State, in one line, measured Drug metabolism of COc1cccc2c1C(=O)c1c(O)c3c(c(O)c1C2=O)C[C@@](O)(C(=O)COC(=O)c1ccc(Oc2no[n+]([O-])c2S(=O)(=O)c2ccccc2)cc1)C[C@@H]3O[C@H]1C[C@H](N)[C@H](O)[C@H](C)O1.Cl
Result: Metabolite_Detected

Task: Retrieve Drug metabolism measured for COc1cccc2c1C(=O)c1c(O)c3c(c(O)c1C2=O)C[C@@](O)(C(=O)COC(=O)CCCC(CO[N+](=O)[O-])O[N+](=O)[O-])C[C@@H]3O[C@H]1C[C@H](N)[C@H](O)[C@H](C)O1.Cl (stereo partly drawn) and print it.
Result: Metabolite_Detected
